target: recombinant human dopamine D2L receptors (Homo sapiens); assay: Dopamine Binding Assay; conditions: HEK-D2L cell membranes, 150 pM [3H]-spiperone, Cheng and Prusoff
Sequence (P14416 whole entry): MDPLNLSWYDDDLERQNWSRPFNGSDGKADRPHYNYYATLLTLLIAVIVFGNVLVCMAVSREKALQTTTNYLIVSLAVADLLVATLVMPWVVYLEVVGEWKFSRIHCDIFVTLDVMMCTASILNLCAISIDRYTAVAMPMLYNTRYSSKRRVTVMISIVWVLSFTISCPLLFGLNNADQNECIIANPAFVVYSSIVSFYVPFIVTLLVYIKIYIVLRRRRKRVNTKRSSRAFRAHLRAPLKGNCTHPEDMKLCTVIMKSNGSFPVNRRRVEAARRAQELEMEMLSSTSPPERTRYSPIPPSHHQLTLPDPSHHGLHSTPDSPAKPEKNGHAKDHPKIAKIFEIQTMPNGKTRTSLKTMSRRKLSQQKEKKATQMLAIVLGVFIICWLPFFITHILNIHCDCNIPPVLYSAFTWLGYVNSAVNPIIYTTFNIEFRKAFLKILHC
pKi: −log10 of the molar value.
Consider the following compounds; for each one, report its pKi.

input: Tell me the measured pKi of CCN(CC)C[C@@H]1C[C@H]1c1c[nH]c2ccc(F)cc12 (relative stereo) [Example 86] , please.
output: 6.00 to 7.00

input: Tell me the measured pKi of N#Cc1ccc2[nH]cc(C3CC3CNCCCc3cccnc3)c2c1 (centres unmarked) [Example 22] , please.
output: 6.00 to 7.00

input: Tell me the measured pKi of CCCNCC1CC1c1c[nH]c2ccc(F)cc12 (centres unmarked) [Example 142] , please.
output: 6.00 to 7.00

input: Tell me the measured pKi of N#Cc1ccc2[nH]cc([C@@H]3C[C@H]3CNCCc3cccc(F)c3)c2c1 (relative stereo) [Example 18] , please.
output: 7.00 to 8.00

input: Tell me the measured pKi of CN(CC1CC1c1c[nH]c2ccc(C#N)cc12)c1ccccc1 (centres unmarked) [Example 138] , please.
output: < 6.00
